Test: Plasma concentration versus time of Compound I and metabolite Compound III in patients dosed QD or BID with Form B of Compound II plus fulvestrant
Format: in vivo, human
Conditions: human, plasma, oral, 650 mg, Cohort 5, 650 mg QD of Form B, Day 29, 4.0 h; read-out: Compound III Concentration, Median
experimental.endpoint: concentration at 4 h

Tell me the measured concentration at 4 h of O=C1NCC2(CCCCC2)n2c1cc1cnc(Nc3ccc(N4CCNCC4)cn3)nc12 , please.
4.78 ng/mL

----------
Experiment: Plasma concentration versus time of Compound I and metabolite Compound III in patients dosed QD or BID with Form B of Compound II plus fulvestrant
Format: in vivo, human
Details: human, plasma, oral, 650 mg, Cohort 5, 650 mg QD of Form B, Day 29, 3.0 h; read-out: Compound III Concentration, Min
experimental.endpoint: concentration at 3 h (ng/mL)
The reply should be a number in ng/mL, with the unit left off.

Tell me the measured concentration at 3 h of O=C1NCC2(CCCCC2)n2c1cc1cnc(Nc3ccc(N4CCNCC4)cn3)nc12 , please.
2.61
